# key: entry, value: chromatographic logP
test: log P by HPLC on reversed-phase C18 columns (OECD Guideline 117); type: physicochemical; details: reversed-phase C18 HPLC column, pH 2.7, method [a]; read-out: logP[a]

{"columns": ["compound", "chromatographic logP"],
 "data": [
  ["CN(C(=O)c1cnc(S(=O)(=O)c2ccc(F)cc2)n1C)c1ccc[n+]([O-])c1", 1.12],
  ["CN(C(=O)c1cnc(SC(F)(F)F)n1C)c1cccnc1", 1.29],
  ["CN(C(=O)c1cnc(Sc2ncccn2)n1Cc1ccccc1)c1cccnc1", 1.73],
  ["CSc1ncc(C(=O)N(C)c2cccnc2)n1C", 0.54],
  ["CNC(=O)CSc1ncc(C(=O)N(C)c2cccnc2)n1C", 0.33],
  ["CN(C(=O)c1cnc(Sc2ccc(F)cc2)n1C)c1cccnc1", 1.66],
  ["CNC(=O)C[S+]([O-])c1ncc(C(=O)N(C)c2cccnc2)n1C (stereo not shown)", 0.27]
]}
